target-or-system: T1, RSV postfusion F (postF), subtype A (respiratory syncytial virus subtype A, UniProt P03420 26-513)
T1 construct: also called Postfusion subtype A; F deltaFP
assay-comment: BLI
assay-endpoint: binding result

binder: ADI-19441 (antibody, V domains shown, full-length IgG) VH: QVQLVQSGAEVKKPGSSVKVSCKASGGTFSSYAISWVRQAPGQGLEWMGRIIPILGIANYAQKFQGRVTITADKSTSTAYMELSSLRSEDTAVYYCARGPLTGYSSSWFDPWGQGTLVTVSS VL: EIVMTQSPSSLSASVGDRVTITCRASQSISSYLNWYQQKPGKAPKLLIYAASSLQSGVPSRFSGSGSGTDFTLTISSLQPEDFATYYCQQSYSTLPYTFGQGTKVEIK
value-reported: no binding
//
binder: ADI-25555 (antibody, V domains shown, full-length IgG) VH: QVQLVQSGGGLVKPGGSLRLSCAASGFTFSSYSMNWVRQAPGKGLEWVSSISSSSSYIYYADSVKGRFTISRDNAKNSLYLQMNSLRAEDTAVYYCARQRGGIAVAGTYFDLWGRGTLVTVSS VL: QPVLTQPPSVSGAPGQRVTISCTGSSSNIGAGYDVHWYQQLPGTAPKLLIYGNSNRPSGVPDRFSGSKSGTSASLAITGLQAEDEADYYCQSYDSTVVFGGGTKLTVL
value-reported: no binding
//
binder: ADI-24800 (antibody, V domains shown, full-length IgG) VH: EVQLLESGGGLVKPGGSLRLSCAASGFTFSSYSMNWVRQAPGKGLEWVSSISSSSSYIYYADSVKGRFTISRDNAKNSLYLQMNSLRAEDTAVYYCARVRGGYSYGYGMDVWGQGTTVTVSS VL: QSVVTQPPSVSGAPGQRVTISCTGSSSNIGAGFDVHWYQQLPGTAPKLLIYGNSNRPSGVPDQFSGSKSGTSASLAITGLQAEDEADYYCQSYDSSLSGVVFGGGTKLTVL
value-reported: no binding

Source of measurements: patent US20260258115A1
